System: human FAP (Homo sapiens (Human), UniProt Q12884)
Sequence (Q12884 whole entry): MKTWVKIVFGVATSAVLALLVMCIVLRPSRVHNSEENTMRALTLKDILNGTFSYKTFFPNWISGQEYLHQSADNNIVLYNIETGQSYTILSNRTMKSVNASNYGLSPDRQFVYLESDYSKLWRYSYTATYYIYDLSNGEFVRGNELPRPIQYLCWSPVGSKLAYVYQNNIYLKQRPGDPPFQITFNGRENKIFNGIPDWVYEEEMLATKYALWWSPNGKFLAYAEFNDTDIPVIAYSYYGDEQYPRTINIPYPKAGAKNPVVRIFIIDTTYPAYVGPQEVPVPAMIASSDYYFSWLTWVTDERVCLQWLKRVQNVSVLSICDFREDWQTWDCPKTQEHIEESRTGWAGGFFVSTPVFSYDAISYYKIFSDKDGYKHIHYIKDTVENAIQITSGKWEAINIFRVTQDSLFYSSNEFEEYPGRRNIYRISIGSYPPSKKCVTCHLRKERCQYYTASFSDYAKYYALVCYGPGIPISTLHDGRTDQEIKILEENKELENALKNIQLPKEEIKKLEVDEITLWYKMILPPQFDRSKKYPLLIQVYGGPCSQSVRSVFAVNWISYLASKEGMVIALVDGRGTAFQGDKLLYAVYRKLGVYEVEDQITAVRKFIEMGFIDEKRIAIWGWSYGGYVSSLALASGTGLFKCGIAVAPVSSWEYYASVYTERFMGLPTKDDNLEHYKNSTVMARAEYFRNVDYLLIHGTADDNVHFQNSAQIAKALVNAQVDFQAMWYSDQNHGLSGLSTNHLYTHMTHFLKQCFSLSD
Assay notes: Inhibition assay of FAP (fluorogenic substrate Z-Gly-Pro-AMC)
Type: biochemical
Stated conditions: substrate Z-Gly-Pro-AMC 20 μM; FAP concentration lower than expected IC50 (66 pM in FIG. 3, 4); room temperature; read-out: IC50 vs human FAP
pIC50: −log10 of the molar value.
Result type: pIC50

- Compound: "N#C[C@@H]1CC(F)(F)CN1C(=O)CN [reference compound]"
  Result type: "pIC50"
  Experimental value: 4.62
- Compound: "CN(C)C(=N)NCCC[C@H](NC(=O)CCC(=O)Nc1cccc2c(C(=O)NCC(=O)N3CC(F)(F)C[C@H]3C#N)ccnc12)C(=O)N[C@@H](Cc1ccccc1)C(=O)NCCN [Compound 27]"
  Result type: "pIC50"
  Experimental value: 8.99
- Compound: "C#CC[C@H](NC(=O)[C@H](CCCNC(=N)N(C)C)NC(=O)CCC(=O)Nc1cccc2c(C(=O)NCC(=O)N3CC(F)(F)C[C@H]3C#N)ccnc12)C(=O)N[C@@H](CCCCN)C(=O)O [Compound 9]"
  Result type: "pIC50"
  Experimental value: 9.36
- Compound: "N#C[C@@H]1CC(F)(F)CN1C(=O)CNC(=O)c1ccnc2c(NC(=O)CCC(=O)N[C@@H](CCCNC(=N)N)C(=O)N[C@H](Cc3ccccc3)C(=O)N[C@@H](CCCCN)C(=O)O)cccc12 [Compound 15]"
  Result type: "pIC50"
  Experimental value: 6.22
- Compound: "C[C@H](NC(=O)[C@H](CCCNC(=N)N)NC(=O)CCC(=O)Nc1cccc2c(C(=O)NCC(=O)N3CC(F)(F)C[C@H]3C#N)ccnc12)C(=O)N[C@@H](CCCCN)C(=O)O [Compound 18]"
  Result type: "pIC50"
  Experimental value: 8.81
- Compound: "N#C[C@@H]1CC(F)(F)CN1C(=O)CCC(=O)O [Compound 1]"
  Result type: "pIC50"
  Experimental value: 3.60
- Compound: "CN(C)C(=N)NCCCC(NC(=O)CCC(=O)Nc1cccc2c(C(=O)NCC(=O)N3CC(F)(F)C[C@H]3C#N)ccnc12)C(=O)N[C@@H](Cc1ccccc1)C(=O)NCCNC(=O)CCC(C(=O)O)N1CCN(CC(=O)O)CCN(CC(=O)O)CCN(CC(=O)O)CC1 (stereo in doubt) [Compound 28]"
  Result type: "pIC50"
  Experimental value: 10.52
- Compound: "CN(C)C(=N)NCCC[C@H](NC(=O)c1coc(CNC(=O)CCC(=O)N2CC(F)(F)C[C@H]2C#N)c1)C(=O)N[C@@H](CCCCN)C(=O)O [Compound 4]"
  Result type: "pIC50"
  Experimental value: 6.75

----------
System: human FAP (Homo sapiens (Human), UniProt Q12884)
Assay notes: Inhibition assay of FAP (fluorogenic substrate Z-Gly-Pro-AMC)
Format: biochemical
Stated conditions: substrate Z-Gly-Pro-AMC 20 μM; FAP concentration lower than expected IC50 (66 pM in FIG. 3, 4); room temperature; read-out: IC50 vs human FAP
pIC50: −log10 of the molar value.
Lab note: compare pIC50 against 9. Equal or greater, write 1. Smaller, write 0.

- Molecule: "C#CC[C@H](NC(=O)CCC(=O)N1CC(F)(F)C[C@H]1C#N)C(=O)N[C@@H](CCCCN)C(=O)O"
  Label: 0
- Molecule: "N#C[C@@H]1CC(F)(F)CN1C(=O)CNC(=O)c1ccnc2c(NC(=O)CCC(=O)N[C@@H](CCCNC(=N)N)C(=O)N[C@@H](Cc3ccccc3)C(=O)N[C@@H](CCCCN)C(=O)O)cccc12"
  Label: 1
- Molecule: "CN(C)C(=N)NCCC[C@H](NC(=O)CCC(=O)Nc1cccc2c(C(=O)NCC(=O)N3CC(F)(F)C[C@H]3C#N)ccnc12)C(=O)N[C@@H](Cc1ccccc1)C(=O)NCCNC(=O)OC(C)(C)C"
  Label: 1
- Molecule: "C#CC[C@@H](NC(=O)[C@H](CCCNC(=N)N(C)C)NC(=O)c1coc(CNC(=O)CCC(=O)N2CC(F)(F)C[C@H]2C#N)c1)C(=O)N[C@@H](CCCCN)C(=O)O"
  Label: 0
- Molecule: "CN(C)C(=N)NCCC[C@H](NC(=O)CCC(=O)Nc1cccc2c(C(=O)NCC(=O)N3CC(F)(F)C[C@H]3C#N)ccnc12)C(=O)N[C@@H](Cc1ccccc1)C(=O)N[C@@H](CCCCN)C(=O)O"
  Label: 1
- Molecule: "C#CC[C@H](NC(=O)CCC(=O)Nc1cccc2c(C(=O)NCC(=O)N3CC(F)(F)C[C@H]3C#N)ccnc12)C(=O)N[C@@H](CCCCN)C(=O)O"
  Label: 0
- Molecule: "N#C[C@@H]1CC(F)(F)CN1C(=O)CNC(=O)c1ccnc2c(NC(=O)CCC(=O)O)cccc12 [Compound 8, reference compound]"
  Label: 0

Reference source: patent US20250177582A1
